system.tested: Nuclear receptor subfamily 1 group I member 2 (Homo sapiens)
experimental.protocol: Human pregnane X receptor (PXR) small molecule agonists, qHTS assay (AID 1346982); note: nearly all actives have a fitted effect of over 35% in size
run.conditions: PXR-Luc HepG2, CYP3A4 luciferase reporter, 24 h; series mostly up to 92.4 µM
Inconclusive results are not listed. Activity calls are given as the source filed them. Calls come from the whole dose curve; as a rule, active = well fitted activation curve with a large enough effect in the repeat runs; inconclusive = weak or mixed curves; inactive = no such curve, though single readings can be large or run the other way.
Use one of these outcomes when replying: active, inactive

Query :: Test call, this molecule: `CNC(=O)N(C)c1nnc(C(C)(C)C)s1`
Result :: active

Query :: Identify the outcome logged in this assay for the molecule shown: `O=C1C=CC(=O)C=C1`
Result :: inactive

Query :: Each molecule tested received a call. Report the one for `COP(=S)(OC)Oc1ccc([N+](=O)[O-])cc1` .
Result :: inactive

Query :: Which outcome was entered for the molecule `O=C(O)C(F)(F)C(F)(F)C(F)(F)C(F)(F)C(F)(F)C(F)(F)C(F)(F)F` in this test?
Result :: inactive

Query :: Could you check what this test reported for `CC(C)N(C(=O)SCC(Cl)=C(Cl)Cl)C(C)C` ?
Result :: inactive

Query :: Can you look up the reported call for `O=[N+]([O-])c1c(Cl)c(Cl)c(Cl)c(Cl)c1Cl` for me?
Result :: inactive

Query :: What call does the record list for `O=C(CCl)c1ccccc1` ?
Result :: active

Query :: Name the outcome recorded for `NC(=S)Nc1ccccc1` in the assay.
Result :: inactive

Query :: Which outcome did this test record for the molecule `CC(C)c1ccc(CO)cc1` ?
Result :: inactive

Query :: Dear all, I need the recorded test outcome for `O=Cc1ccco1` , thank you.
Result :: inactive
